# Tested on: SNB-19 CNS
# assay_info: NCI-60 one-dose screen, 48 h (100 = growth as untreated, 0 = no growth, -100 = all killed)
# condition_notes: 10 µM unless noted
# Experimental: Growth inhibition of the SNB-19 human tumor cell line is measured as a screen for anti-cancer activity. Cells are grown in 96 well plates and exposed to the test compound for 48 hours. Compounds are tested at a single concentration, which is 10^-5 M for most compounds. The reported endpoint is percent growth (GI% or GIPRCNT), where numbers from 0 - 100% represent growth inhibition, and numbers from -100% - 0 represent cell death. For example, a value of 40 represents 60% growth inhibition. […]
About 83,000 compounds went through this panel and 20% of them were active in at least one assay; those are over-represented in the sample as a whole.
assay_metric: growth (%)
Write it as a number; the unit % goes unstated.

Tell me the measured growth of "C[C@H]1OCC2(CCN(c3cnc(C(=O)Nc4cc(F)cc5cccnc45)cn3)CC2)[C@H]1N" , please.
73.5

Tell me the measured growth of "COc1cc(C(=O)c2cc(C(C)=O)c3ccc(C)cn23)cc(OC)c1OC" , please.
40

Tell me the measured growth of "CNC(=O)Nc1ccc(Nc2cc(-c3ccc(-n4cccn4)cc3)[nH]n2)c(C)c1" , please.
97.6

Tell me the measured growth of "COc1cc2c3c(cc4c5c(ccc4c3c1OC)OCO5)N(CCN(C)C)C2=O" , please.
1.56

Tell me the measured growth of "Cc1cc(NS(=O)(=O)c2ccc(NC(=O)CSc3nc4ccccc4c(=O)n3-c3ccccc3)cc2)no1" , please.
94.2

Tell me the measured growth of "CC(C)[C@H]1c2[nH]c3ccccc3c2C[C@H]2C(=O)N(CCCCCCC(=O)NO)CC(=O)N12" , please.
86.7

Tell me the measured growth of "O=S(=O)(NCCCNc1nccc(-c2[nH]c(-c3ccccc3)nc2-c2ccc(F)c(O)c2)n1)c1ccc(C(F)(F)F)cc1" , please.
43.2

Tell me the measured growth of "O=C(CSc1nc2ccccc2c(=O)n1-c1ccccc1)Nc1ccc(S(=O)(=O)Nc2nccs2)cc1" , please.
43.7

Tell me the measured growth of "CCOC(=O)c1ccc(NC2=C(Cl)C(=O)c3nc(C)ccc3C2=O)cc1" , please.
68.1

---

What growth was measured for each of the following?
# System: K-562 leukemia
# assay_info: NCI-60 one-dose screen, 48 h (100 = growth as untreated, 0 = no growth, -100 = all killed)
# condition_notes: 10 µM unless noted
About 83,000 compounds went through this panel and 20% of them were active in at least one assay; those are over-represented in the sample as a whole.
Write it as a number; the unit % goes unstated.

Tell me the measured growth of "O=C(CCCCCCN1CC(=O)N2[C@@H](c3ccc(Cl)s3)c3[nH]c4ccccc4c3C[C@H]2C1=O)NO" , please.
27.5

Tell me the measured growth of "NC(=O)c1ncn2c(=O)n(CCF)nnc12" , please.
26.7

Tell me the measured growth of "CCCc1[nH]c(-c2cc(N)ccc2Cl)c2c1C(=O)CCCC2" , please.
93.1

Tell me the measured growth of "CN1CCN(c2ccc(Nc3nc(NCCNC(=O)c4ccc(F)cc4)c4sccc4n3)cc2)CC1" , please.
19.8

Tell me the measured growth of "CN1CCN(c2ccc(Nc3nc(NCCNC(=O)c4ccccc4)c4sccc4n3)cc2)CC1" , please.
8.82

Tell me the measured growth of "CC1=C(C)C(=O)C(Nc2ccc(C)c(C)c2)=C(Br)C1=O" , please.
-2.41

Tell me the measured growth of "NS(=O)(=O)c1nnc(/N=C/c2c(O)[nH]c3ccccc23)s1" , please.
110

Tell me the measured growth of "C#C[C@]1(O)CC[C@H]2[C@@H]3CC=C4c5sc(N(C)c6ccccc6)nc5CC[C@]4(C)[C@H]3CC[C@@]21C" , please.
2.88

Tell me the measured growth of "O=S(=O)(Oc1ccc(-c2cn3ccoc3n2)cc1)c1cccc(C(F)(F)F)c1" , please.
101

Tell me the measured growth of "Cn1c2nc3ccccc3c-2cc2ccccc21" , please.
21.1

FYI, the data here is from PubChem BioAssay (NCI).
